- subject of test: Pro-neuregulin-1, membrane-bound isoform (Homo sapiens) (UniProt Q02297)
- Sequence (Q02297 whole entry, looked up, canonical isoform): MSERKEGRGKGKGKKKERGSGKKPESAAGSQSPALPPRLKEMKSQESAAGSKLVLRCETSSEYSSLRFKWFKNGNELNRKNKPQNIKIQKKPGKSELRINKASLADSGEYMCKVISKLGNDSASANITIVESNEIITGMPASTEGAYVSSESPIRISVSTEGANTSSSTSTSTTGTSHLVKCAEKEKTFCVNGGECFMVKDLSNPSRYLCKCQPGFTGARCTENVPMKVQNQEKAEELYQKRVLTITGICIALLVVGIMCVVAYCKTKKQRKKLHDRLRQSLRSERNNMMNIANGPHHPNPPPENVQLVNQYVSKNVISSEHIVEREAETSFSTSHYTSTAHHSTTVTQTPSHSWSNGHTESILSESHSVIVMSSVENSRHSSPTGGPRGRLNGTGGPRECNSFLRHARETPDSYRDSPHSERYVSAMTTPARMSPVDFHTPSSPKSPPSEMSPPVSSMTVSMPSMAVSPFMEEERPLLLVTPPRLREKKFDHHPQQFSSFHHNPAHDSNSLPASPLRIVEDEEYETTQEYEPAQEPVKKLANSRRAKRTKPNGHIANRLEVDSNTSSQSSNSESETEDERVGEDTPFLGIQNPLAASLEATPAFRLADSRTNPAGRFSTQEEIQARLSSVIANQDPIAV
- procedure details: NRG1 binders on small-molecule microarrays, primary screen, psychiatric disease protein project, biochemical, small-molecule microarray, fluorescence 635/667 (AID 1075);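 note: score combines 667 nm spot fluorescence with signal to noise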
- protocol conditions: NRG1 binding, 635 nm fluorescence, higher = more signal
observable: composite z-score

So what's the measured composite z-score for this one? CCCNC(=O)OC[C@H]1O[C@H](c2ccccc2)C=C[C@@H]1Oc1ccc(OC)cc1 -0.327

So what's the measured composite z-score for this one? C[C@@H](c1ccccc1)N1C(=O)[C@H]2[C@H]3[C@H](O)[C@H](O)CC(=NO[C@@H]4O[C@H](CO)[C@@H](O)[C@H](O)[C@H]4O)[C@@H]3CC[C@H]2C1=O -0.319

So what's the measured composite z-score for this one? CCOC(=O)[C@H](CC(C)C)NC(=O)CCC1CC(OC(=O)NCCc2ccc(F)cc2)CC2(CCCC(COC(=O)NCC(c3ccccc3)c3ccccc3)O2)O1 (stereo partly drawn) 0.221

====

Answer each item with its documented composite z-score.
- subject of test: Left-right determination factor 2 (Homo sapiens) (UniProt O00292)
- Sequence (O00292 whole entry, looked up): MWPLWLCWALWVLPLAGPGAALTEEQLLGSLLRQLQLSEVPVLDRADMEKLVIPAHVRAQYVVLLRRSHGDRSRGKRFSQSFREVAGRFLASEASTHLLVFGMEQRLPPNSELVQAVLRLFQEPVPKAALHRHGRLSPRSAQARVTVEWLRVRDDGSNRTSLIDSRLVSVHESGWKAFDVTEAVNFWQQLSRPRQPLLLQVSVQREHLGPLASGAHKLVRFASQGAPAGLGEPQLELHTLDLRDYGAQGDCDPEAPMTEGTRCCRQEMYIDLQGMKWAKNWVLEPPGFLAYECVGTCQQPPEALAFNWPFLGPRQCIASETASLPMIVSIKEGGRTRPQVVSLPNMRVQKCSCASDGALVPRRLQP
- procedure details: LEFTY2 binders on small-molecule microarrays, primary screen, biochemical, small-molecule microarray, 635 nm fluorescence scan (AID 1110)
- protocol conditions: LEFTY2 binding, higher = more signal
The reply should be a number, written without any unit.

So what's the measured composite z-score for this one? O=C(NN=C1C[C@@H](O)[C@@H](O)[C@@H]2[C@@H]3C(=O)N(Cc4ccccc4)C(=O)[C@@H]3CC[C@@H]12)OCc1ccccc1 0.401

So what's the measured composite z-score for this one? COC(=O)CC=C[C@@H](C)[C@@H](C=NO[C@@H]1O[C@H](COC(C)=O)[C@@H](OC(C)=O)[C@H](OC(C)=O)[C@H]1OC(C)=O)NS(=O)(=O)c1ccc(C)cc1 0.599

So what's the measured composite z-score for this one? C[C@H](ON=C1[C@H]2CCn3c(=O)n(-c4ccccc4)c(=O)n3[C@H]2[C@H](O)[C@@H]2O[C@H]12)c1cn([C@H](CO)Cc2ccccc2)nn1 0.605

====

- procedure details: binders of probe aHhip on microarray, primary screen, stem cell growth factor project, biochemical, small-molecule microarray, fluorescence 635/667 (AID 1087);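 note: score merges spot fluorescence at 667nm with spot signal to noise ratio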
- protocol conditions: higher = more signal
Binary call on composite z-score: criterion met from 0.04 upward, criterion not met beneath that.

Reported composite z-score at or above 0.04? COc1ccc(O[C@H]2C=C[C@@H](c3ccccc3)O[C@@H]2CON=CC[C@@H]2C=C[C@H](OC(C)=O)[C@@H](COC(C)=O)O2)cc1 criterion not met

Reported composite z-score at or above 0.04? C#CCCCON=C1[C@H]2CCn3c(=O)n(C)c(=O)n3[C@H]2[C@H](O)[C@@H]2O[C@H]12 criterion met

Reported composite z-score at or above 0.04? COC(=O)CC=C[C@@H](C)[C@@H](C=NO[C@@H](C)c1cn([C@H](CO)Cc2ccccc2)nn1)OC criterion not met

Reported composite z-score at or above 0.04? CCOC(=O)[C@H](CC(C)C)NC(=O)CCC1CC(OC(=O)NCc2cccc3ccccc23)CC2(CCCC(COC(=O)NCCOc3ccccc3)O2)O1 (some centres not stated) criterion met

Reported composite z-score at or above 0.04? C=CC1=C[C@H](O)[C@@H]2O[C@@H]2C12OCCCO2 criterion not met

Reported composite z-score at or above 0.04? CCOC(=O)NN=C1C[C@@H](O)[C@@H](O)[C@@H]2[C@@H]3C(=O)N(c4cccc(Oc5ccccc5)c4)C(=O)[C@@H]3CC[C@@H]12 criterion not met

====

- subject of test: E3 ubiquitin-protein ligase XIAP (Homo sapiens) (UniProt P98170)
- Sequence (P98170 whole entry, looked up): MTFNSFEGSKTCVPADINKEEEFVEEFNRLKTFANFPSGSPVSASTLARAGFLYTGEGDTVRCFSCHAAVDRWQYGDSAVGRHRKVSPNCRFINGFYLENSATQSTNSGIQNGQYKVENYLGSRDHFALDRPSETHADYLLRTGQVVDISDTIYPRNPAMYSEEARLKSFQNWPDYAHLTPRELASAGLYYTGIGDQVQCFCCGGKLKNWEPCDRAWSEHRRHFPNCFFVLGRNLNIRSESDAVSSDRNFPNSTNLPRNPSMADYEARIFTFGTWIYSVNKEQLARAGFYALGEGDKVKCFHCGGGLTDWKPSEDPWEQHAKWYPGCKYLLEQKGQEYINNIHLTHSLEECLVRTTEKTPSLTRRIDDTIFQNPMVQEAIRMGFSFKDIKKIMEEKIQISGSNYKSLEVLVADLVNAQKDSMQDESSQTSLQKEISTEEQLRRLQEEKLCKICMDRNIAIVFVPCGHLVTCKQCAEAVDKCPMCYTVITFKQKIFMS
- procedure details: XIAP binders, primary screen, biophysical, small-molecule microarray, fluorescence 635 nm (AID 1181);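 note: score merges 667 nm emission and signal to noise over triplicate slides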
- protocol conditions: small-molecule microarray binding, higher = more signal
Answer each item with its documented composite z-score.
The reply should be a number, written without any unit.

So what's the measured composite z-score for this one? Cc1ccc(S(=O)(=O)N[C@H]2COC(=O)CC=C[C@H](C)[C@@H](NS(=O)(=O)c3ccc(C)cc3)COC(=O)CC=C[C@@H]2C)cc1 -0.146

So what's the measured composite z-score for this one? CCCNC(=O)OC[C@H]1O[C@H](CCON=C(C)CCC(=O)OC[C@H]2O[C@H](c3ccccc3)C=C[C@@H]2Oc2ccc(OC)cc2)C=C[C@@H]1Oc1ccc(OC)cc1 -0.171

So what's the measured composite z-score for this one? C=CC[C@@H]1C=C[C@H](ON=C(C)CCC(=O)OC[C@H]2O[C@H](c3ccccc3)C=C[C@@H]2Oc2ccc(OC)cc2)[C@@H](CO)O1 -0.0272

So what's the measured composite z-score for this one? CO[C@H]1COC(=O)[C@H](C)NC(=O)CC=C[C@@H](C)[C@H](OC)COC(=O)[C@@H](OCc2ccccc2)C=C[C@@H]1C -0.142

So what's the measured composite z-score for this one? COC(=O)[C@@H]1CC[C@H](C)[C@@H](c2ccc(C)cc2)N1C(=O)c1ccc(C=NO[C@H](C)c2cn([C@@H]3COC[C@H]3O)nn2)cc1 0.199

So what's the measured composite z-score for this one? O=C1[C@H]2[C@H]3[C@H](O)[C@H](O)CC(=NO[C@@H]4O[C@H](CO)[C@@H](O)[C@H](O)[C@H]4O)[C@H]3CC[C@H]2C(=O)N1c1cccc(Oc2ccccc2)c1 -0.0773

So what's the measured composite z-score for this one? COC(=O)CC=C[C@@H](C)[C@@H](C=NOC[C@@H](O)[C@H]1O[C@@H]2OC(C)(C)O[C@@H]2[C@H]1O)NS(=O)(=O)c1ccc(C)cc1 -0.0445

So what's the measured composite z-score for this one? CCN1C(=O)[C@H]2[C@H]3[C@H](O)[C@H](O)CC(=NO[C@@H](C)c4cn([C@H](CO)Cc5ccccc5)nn4)[C@@H]3CC[C@H]2C1=O 0.0451

So what's the measured composite z-score for this one? C=CC[C@@H]1C=C[C@H](ON=C(C)CCC(=O)OC[C@H]2O[C@H](C#Cc3ccccc3)C=C[C@@H]2Oc2ccc(C)cc2)[C@@H](CO)O1 0.132

So what's the measured composite z-score for this one? COc1ccc(O[C@H]2C=C[C@@H](c3ccccc3)O[C@@H]2CON=CC[C@@H]2C=C[C@H](OC(C)=O)[C@@H](COC(C)=O)O2)cc1 0.0391

So what's the measured composite z-score for this one? CCC1=NOC(CCC2CC(OC(=O)NCc3cccc4c3OCO4)CC3(CCCC(COC(=O)NCCc4ccccc4OC)O3)O2)C1 (stereo not drawn) -0.294

So what's the measured composite z-score for this one? C[C@@H]1NC(=O)[C@@H](C)COC(=O)[C@H](C)NC(=O)[C@@H](C)COC1=O 0.0714

So what's the measured composite z-score for this one? O=C1[C@H]2[C@H]3[C@H](O)[C@H](O)CC(=NOCc4ccccc4)[C@@H]3CC[C@H]2C(=O)N1Cc1ccc2c(c1)OCO2 -0.0377

====

- procedure details: fission yeast growth modulation, primary screen, strain 972, OD600, 24 h, no modulator (AID 1090);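 note: basal condition with compound alone and no growth modifier present; test concentration not given here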
- protocol conditions: S. pombe 972 growth, called active from +8 up or from −8 down
Active and inactive are the calls of the source.
Entry note: the call must match one of active, inactive

GET /call?item= COC(=O)CC=C[C@@H](C)[C@@H](C=NO[C@@H](C)c1cc(-c2c(C)cc(C)cc2C)no1)NS(=O)(=O)c1ccc(C)cc1 returns the recorded outcome of this test. inactive

GET /call?item= Cc1cc2c(nc1C)CCCCN2CC(C)ON=C[C@@H](C)[C@H](OCc1ccccc1)C(C)C (some centres not stated) returns the recorded outcome of this test. active

GET /call?item= CC(C)C[C@H](NC(=O)CCC1CC(OC(=O)NCc2cccc3ccccc23)CC2(CCCC(COC(=O)NCc3ccccc3)O2)O1)C(=O)NCC(c1ccccc1)c1ccccc1 (some centres not stated) returns the recorded outcome of this test. inactive

GET /call?item= CCO[C@H](c1cc(OC)cc([N+](=O)[O-])c1OC)[C@H](C)C=CCC(=O)OC returns the recorded outcome of this test. inactive

GET /call?item= CO[C@H](C1CCCCC1)[C@H](C)C=CCC(=O)OCCCc1ccccc1 returns the recorded outcome of this test. inactive

GET /call?item= CCOC(=O)CCN1C(=O)[C@H]2[C@H]3[C@H](O)[C@H](O)CC(=NOCC(C)C)[C@H]3CC[C@H]2C1=O returns the recorded outcome of this test. inactive

GET /call?item= COC(=O)[C@H](C)NC(=O)CCC1CC(OC(=O)NCc2ccc3c(c2)OCO3)CC2(CCCC(COC(=O)NCC3CCCCC3)O2)O1 (some centres not stated) returns the recorded outcome of this test. inactive
